biological target: Histone deacetylase 3 (Homo sapiens); assay: Inhibition of human recombinant HDAC3 pre-incubated for 30 mins before Ac-Leu- Gly-Lys(Ac)-AMC substrate addition and measured after 90 mins by fluorescence based assay
Sequence (O15379 whole entry): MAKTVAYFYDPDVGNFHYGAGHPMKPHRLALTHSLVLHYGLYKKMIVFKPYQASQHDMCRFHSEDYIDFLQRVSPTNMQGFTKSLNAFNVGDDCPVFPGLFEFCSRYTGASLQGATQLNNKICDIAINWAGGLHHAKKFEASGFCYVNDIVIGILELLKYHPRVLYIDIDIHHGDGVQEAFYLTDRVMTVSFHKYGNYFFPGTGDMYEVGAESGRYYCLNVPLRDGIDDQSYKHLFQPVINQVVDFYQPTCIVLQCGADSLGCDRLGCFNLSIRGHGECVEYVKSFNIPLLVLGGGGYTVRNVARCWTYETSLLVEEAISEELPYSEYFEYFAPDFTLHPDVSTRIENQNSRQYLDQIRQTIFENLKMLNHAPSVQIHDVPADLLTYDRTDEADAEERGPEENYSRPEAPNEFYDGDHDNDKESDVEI
Criterion: IC50 strictly less than 7 nM. Met: 1 (yes). Not met: 0 (no).

O=C(NO)c1ccc(NC(=O)C2(c3c[nH]c(-c4ccccc4)n3)CCCC2)cc1 0 (no)

Criterion: IC50 strictly below 7 nM. Is it met by `O=C(NO)c1ccc(NC(=O)C2(c3ccc(Br)cc3)CCOCC2)cc1` ?
1 (yes)

Please check: IC50 for `CN(C)c1ccc(C2(C(=O)Nc3ccc(C(=O)NO)cc3)CCCC2)cc1` , strictly under 7 nM or not?
0 (no)

Is IC50 of `O=C(NO)c1ccc(NC(=O)C2(c3ccc(-c4cn[nH]c4)cc3)CCCCC2)cc1` strictly below 7 nM?
1 (yes)

Decide: IC50 of `O=C(NO)c1ccc(NC(=O)C2(c3ccc4ccccc4c3)CCOCC2)cc1` strictly below 7 nM?
1 (yes)

Taken from ChEMBL document CHEMBL4602725.
